Where these numbers come from: patent US10323043B2

System: MV4-11 cell line
Experiment: Antiproliferative activity (ATPLite cell viability), MV4-11
Type: cell-based
Conditions: Homo sapiens, MV4-11 (acute myeloid leukemia, FLT3-ITD), 72 h incubation, read-out: Cytotoxicity (EC50) on MV411 cell line
readout: log10 of EC50 (log10 of the value in nM)
# log10 transformed; quantity=EC50; unit=nM

[in] Please supply the value of reported log10 of EC50 for the item c1cc(N2CC3CNCC3C2)c2cc1Nc1ncc3c(n1)-c1cc(ccc1CC3)OCCOCCO2 (centres unmarked)
[out] 0.88

[in] Name the recorded log10 of EC50 of the molecule listed here: c1cc(N2CCC(N3CCOCC3)C2)c2cc1Nc1ncc3c(n1)-c1cc(ccc1CC3)OCCOCCO2 (centres unmarked)
[out] 1.60

[in] Give the value of log10 of EC50 reported for the following: CN(C)C1CCN(c2ccc3cc2OCCOCCOc2ccc4c(c2)-c2nc(ncc2CC4)N3)C1 (centres unmarked)
[out] 1.08

[in] Output log10 of EC50 of c1cc(N2CCNCC2)c2cc1Nc1ncc3c(n1)-c1cc(ccc1CC3)OCCOCCO2
[out] 0.86

[in] Please list log10 of EC50 recorded for the molecule OC1CCN(c2ccc3cc2OCCOCCOc2ccc4c(c2)-c2nc(ncc2CC4)N3)CC1
[out] 1.08

[in] Tell me its log10 of EC50 given CN1CCN(c2ccc3cc2OCCOCCOc2ccc4c(c2)-c2nc(ncc2CC4)N3)CC1(C)C as the entry.
[out] 1.32

[in] Give the value of log10 of EC50 reported for the following: CN1CC=C(c2ccc3cc2OCCOCCOc2ccc4c(c2)-c2nc(ncc2CC4)N3)CC1
[out] 1.30

[in] Quote log10 of EC50 reported for CN1CCN(c2ccc3cc2OCCOCCOc2ccc4c(c2)-c2nc(ncc2CC4)N3)CC1 please.
[out] 0.45

###

Biological target: FLT3^D835Y (Homo sapiens, UniProt P36888, D835Y)
Assay: LanthaScreen TR-FRET binding test, FLT3 D835Y
Conditions: FLT3^D835Y 15 nM, kinase tracer 236 3 nM, 25° C., 1 hour; read-out: Inhibition (IC50) of FLT3^D835Y enzyme
Kindly apply the following: Criterion met if IC50 is less than 3 nM, Criterion not met in every other case.

[in] Bench note: check whether c1cc(N2CC3CNCC3C2)c2cc1Nc1ncc3c(n1)-c1cc(ccc1CC3)OCCOCCO2 (stereo not shown) shows IC50 below 3 nM
[out] Criterion met

[in] A record lists CN1CCN(c2ccc3cc2OCCOCCOc2ccc4c(c2)-c2nc(ncc2CC4)N3)CC1(C)C . Is its IC50 below 3 nM?
[out] Criterion met

[in] Given OC1CCN(c2ccc3cc2OCCOCCOc2ccc4c(c2)-c2nc(ncc2CC4)N3)CC1 , is recorded IC50 strictly lower than 3 nM?
[out] Criterion not met

[in] Strictly below 3 nM: is that where IC50 of c1cc(N2CCC(N3CCCCC3)CC2)c2cc1Nc1ncc3c(n1)-c1cc(ccc1CC3)OCCOCCO2 sits?
[out] Criterion met

[in] For this compound, is IC50 lower than 3 nM? CN1CC=C(c2ccc3cc2OCCOCCOc2ccc4c(c2)-c2nc(ncc2CC4)N3)CC1
[out] Criterion not met

[in] Is the reported IC50 for CN(C)C1CCN(c2ccc3cc2OCCOCCOc2ccc4c(c2)-c2nc(ncc2CC4)N3)C1 (stereo not shown) strictly below 3 nM?
[out] Criterion not met

[in] Identify whether the compound c1cc(N2CCNCC2)c2cc1Nc1ncc3c(n1)-c1cc(ccc1CC3)OCCOCCO2 records IC50 below 3 nM.
[out] Criterion met

[in] Quick check: IC50 of c1cc(N2CCC(N3CCOCC3)C2)c2cc1Nc1ncc3c(n1)-c1cc(ccc1CC3)OCCOCCO2 (stereo not shown) under 3 nM?
[out] Criterion not met

[in] Dear colleague, could you confirm whether IC50 of c1cc(OCCN2CCCC2)c2cc1Nc1ncc3c(n1)-c1cc(ccc1CC3)OCCOCCO2 falls below 3 nM? Thanks.
[out] Criterion not met
